Reference for the values: PubChem BioAssay (NCI)

experiment: NCI Yeast Anticancer Drug Screen. Data for the sgs1 mgt1 strain (AID 161);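 note: 0% = growth of cultures given vehicle only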; conditions: S. cerevisiae sgs1 mgt1 strain, at 50.0 µM (retest, dose inferred, filed as 5.0), stronger effect = higher value
The panel holds about 79,000 compounds, 15% with a hit somewhere; the sample as a whole holds those more often.
Label -1 if growth inhibition falls below 80%; label 1 in every other case.

compound: COc1cc(/C=C2\SC(=S)N(/C=C/c3nc4ccccc4[nH]c3=O)C2=O)cc(OC)c1OC
label-class: -1
--
compound: C=C1C(=O)OC2CC1C(OC(=O)/C=C/c1ccccc1)C/C(C)=C/CC/C(C)=C/CCC2(C)O (configuration not stated)
label-class: 1
--
compound: Nc1nc(-c2ccccc2)nc(N)c1N=O
label-class: 1
--
compound: COc1ccc2c(c1)c(CC(=O)O)c(C)n2C(=O)c1ccc(Cl)cc1
label-class: -1
--
compound: CC12CCC(O)CC1=CCC1C2CCC2(C)C3=NN=CC3CC12 (configuration not stated)
label-class: 1
--
compound: N=C(N)Sc1cccc[n+]1[O-]
label-class: 1
--
compound: CCCCCCCCCCCC(=O)OC(C)C(=O)NCCCC (configuration not stated)
label-class: -1
--
compound: COc1cc(NC(=O)C2=C(C)NC(C)=C(C(=O)Nc3cc(OC)c(Cl)cc3OC)C2c2cccc([N+](=O)[O-])c2)c(OC)cc1Cl
label-class: 1
--
compound: O=[N+]([O-])c1ccc([I+]c2ccccc2)cc1
label-class: 1
--
compound: O=C1C=CC2C3C(=O)N(c4ccccc4)C(=O)C3C1N2Cc1ccccc1 (configuration not stated)
label-class: -1
--
compound: CCCCCC/C=C1\CCC(CN2CCCC2)C1=O (configuration not stated)
label-class: 1
--
compound: COc1ccc(N=NC(C#N)C#N)cc1
label-class: 1
--
compound: O=[N+]([O-])c1ccc2c(c1)Cc1ccccc1-2
label-class: -1
--
compound: O=C1CSC(=S)N1Cc1cccnc1
label-class: -1
--
compound: Cc1ccc(/C=C2\CNC/C(=C\c3ccc(C)cc3)C2=O)cc1
label-class: 1
--
compound: CN(C)c1ccc(/C=C/c2ccnc3ccccc23)cc1
label-class: 1
--
compound: CC1(C)N=c2cc3c(cc2N1c1ccc(Cl)cc1)=Nc1ccccc1N3c1ccc(Cl)cc1
label-class: -1
--
compound: CC(C)(C)N/N=C(/Cc1nc2c3c(ccc2[nH]c1=O)C(=O)c1ccccc1C3=O)C(=O)NC1=C(Cl)C(=O)c2ccccc2C1=O
label-class: -1
--
compound: CC1OC(OC2C(OC3CCC4(C)C(CCC5(C)C4CC=C4C6CC(C)(C)CCC6(C(=O)O)CCC45C)C3(C)CO)OCC(O)C2O)C(O)C(O)C1O (configuration not stated)
label-class: 1
--
compound: O=C(OC12CC3CC(CC(C3)C1)C2)c1ccc(NCc2cc(O)ccc2O)cc1
label-class: 1
--
compound: Cc1ccc(-c2c(C#N)c(-c3ccc(C)cc3)n(NS(=O)(=O)c3ccccc3)c(=O)c2C#N)cc1
label-class: 1
